target: recombinant human VAP-1 (Homo sapiens, UniProt Q16853); construct: purchased R&D systems; experiment: Activity on recombinant human VAP-1, HRP-coupled Amplex Red hydrogen peroxide assay; type: biochemical; details: substrate 1 mM benzylamine; compound incubated with enzyme at 37° C. for 30 minutes; pH 7.4; read-out: Inhibitory Activity (IC50, nM) human VAP-1
Sequence (Q16853 whole entry): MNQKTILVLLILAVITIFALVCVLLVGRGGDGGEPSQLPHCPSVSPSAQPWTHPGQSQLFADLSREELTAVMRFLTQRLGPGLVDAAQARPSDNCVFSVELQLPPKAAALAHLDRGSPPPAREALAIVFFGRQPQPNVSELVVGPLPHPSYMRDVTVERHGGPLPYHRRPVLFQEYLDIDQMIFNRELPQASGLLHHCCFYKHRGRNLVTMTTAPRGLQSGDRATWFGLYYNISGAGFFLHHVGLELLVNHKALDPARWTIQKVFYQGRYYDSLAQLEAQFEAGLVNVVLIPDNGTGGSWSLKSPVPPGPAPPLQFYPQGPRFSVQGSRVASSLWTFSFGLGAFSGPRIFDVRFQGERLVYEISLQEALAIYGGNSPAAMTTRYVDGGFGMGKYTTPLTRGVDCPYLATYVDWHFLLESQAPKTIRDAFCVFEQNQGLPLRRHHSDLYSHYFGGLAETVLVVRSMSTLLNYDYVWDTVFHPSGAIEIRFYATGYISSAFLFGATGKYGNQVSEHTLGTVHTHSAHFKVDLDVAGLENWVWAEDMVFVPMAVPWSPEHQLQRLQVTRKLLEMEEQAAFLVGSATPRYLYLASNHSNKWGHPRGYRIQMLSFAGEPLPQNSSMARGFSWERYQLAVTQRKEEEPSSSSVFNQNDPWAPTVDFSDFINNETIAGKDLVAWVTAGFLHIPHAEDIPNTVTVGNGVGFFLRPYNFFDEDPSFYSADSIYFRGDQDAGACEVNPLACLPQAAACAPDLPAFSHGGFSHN
Structures can show the parent of a compound that is named as a salt.
Item-by-item account of IC50
Could you give me the number in nM? Just the number is fine.

These solved cases illustrate the format of a correct answer.
Cc1cscc1-c1ccc(Cn2cnn(C/C(=C/F)CN)c2=O)s1 [Example 165] = 7.5
NC/C(=C\F)Cn1ncn(Cc2ccc(C#Cc3ccc4c(n3)OCCN4)s2)c1=O [Example 136, hydrochloride] = 1.5
CCn1cc(-c2ccc3sc(Cn4cnn(C/C(=C/F)CN)c4=O)cc3c2)cn1 [Example 214] = 1.6

In the following, a different compound is considered.
### Prompt Dear colleague, please send me the reported IC50 for CC(C)c1nc(-c2cccc(-c3ccc(Cn4cnn(C/C(=C/F)CN)c4=O)s3)c2)no1 [Example 38, hydrochloride] when you can.
### Response 2.8

###

biological target: recombinant human DAO (diamine oxidase) (Homo sapiens, UniProt P19801); construct: purchased R&D systems; test: Activity on recombinant human DAO, method similar to the VAP-1 assay; format: biochemical; details: substrate 1 mM putrescine; read-out: Inhibitory Activity (IC50, nM) DAO
Sequence (P19801 20-751): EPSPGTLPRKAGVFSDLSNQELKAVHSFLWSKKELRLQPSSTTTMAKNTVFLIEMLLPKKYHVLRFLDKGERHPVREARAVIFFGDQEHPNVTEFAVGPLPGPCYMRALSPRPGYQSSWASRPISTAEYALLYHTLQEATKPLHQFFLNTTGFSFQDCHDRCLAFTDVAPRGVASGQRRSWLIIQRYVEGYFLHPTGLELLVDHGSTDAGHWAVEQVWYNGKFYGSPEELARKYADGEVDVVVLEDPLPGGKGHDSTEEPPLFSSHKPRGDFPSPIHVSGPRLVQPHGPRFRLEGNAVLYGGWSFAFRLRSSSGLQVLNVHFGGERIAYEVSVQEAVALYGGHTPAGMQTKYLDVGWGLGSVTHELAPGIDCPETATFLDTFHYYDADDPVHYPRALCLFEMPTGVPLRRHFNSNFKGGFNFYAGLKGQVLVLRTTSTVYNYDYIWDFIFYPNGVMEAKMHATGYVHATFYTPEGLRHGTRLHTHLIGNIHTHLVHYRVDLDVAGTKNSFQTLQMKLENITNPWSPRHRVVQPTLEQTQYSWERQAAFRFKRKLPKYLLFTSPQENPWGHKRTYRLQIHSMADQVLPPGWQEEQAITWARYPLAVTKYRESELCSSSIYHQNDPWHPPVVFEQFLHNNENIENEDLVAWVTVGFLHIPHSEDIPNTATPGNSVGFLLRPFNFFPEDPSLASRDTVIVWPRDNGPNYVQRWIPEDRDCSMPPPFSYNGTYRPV
Structures can show the parent of a compound that is named as a salt.
quantityName: log10(IC50) (log10 of the value in nM)
# log10 transformed; quantity=IC50; unit=nM

CN1CCOc2cc(-c3ccc(Cn4cnn(C/C(=C/F)CN)c4=O)s3)ccc21 [Example 103, hydrochloride] = 3.04
NC/C(=C\F)Cn1ncn(Cc2ccc(-c3cc4c(cc3F)NC(=O)CC4)s2)c1=O = 3.11
CN(C)c1cc(-c2ccc(Cn3cnn(C/C(=C/F)CN)c3=O)s2)ccc1F [Example 6, hydrochloride] = 3.46
NC/C(=C\F)Cn1ncn(Cc2ccc(-c3ccc4c(c3)COC4)s2)c1=O = 3.30
NC/C(=C\F)Cn1ncn(Cc2ccc(-c3ccc4c(c3)C(=O)NC4)s2)c1=O [Example 67, hydrochloride] = 3.08
CC(C)(C)NS(=O)(=O)c1cncc(-c2ccc(Cn3cnn(C/C(=C/F)CN)c3=O)s2)c1 [Example 43, hydrochloride] = 2.04

### Prompt Under recombinant human DAO (diamine oxidase) (Homo sapiens, UniProt P19801), report log10(IC50) for CC1(C)Oc2cc(-c3ccc(Cn4cnn(C/C(=C/F)CN)c4=O)s3)ccc2NC1=O
### Response 2.88

### Prompt Please report the measured log10(IC50) for CN1C(=O)COc2ncc(-c3ccc(Cn4cnn(C/C(=C/F)CN)c4=O)s3)cc21 tested on recombinant human DAO (diamine oxidase) (Homo sapiens, UniProt P19801).
### Response 2.28

### Prompt Determine reported log10(IC50) for NC/C(=C\F)Cn1ncn(Cc2ccc(-c3ccc4oc(=O)[nH]c4c3)s2)c1=O [Example 72, hydrochloride] ; test system: recombinant human DAO (diamine oxidase) (Homo sapiens, UniProt P19801).
### Response 2.36

### Prompt Fetch value of log10(IC50) on recombinant human DAO (diamine oxidase) (Homo sapiens, UniProt P19801) for NC/C(=C\F)Cn1ncn(Cc2ccc(-c3ccncc3)s2)c1=O .
### Response 3.04

### Prompt Give log10(IC50) for this entry on recombinant human DAO (diamine oxidase) (Homo sapiens, UniProt P19801): NC/C(=C\F)Cn1ncn(Cc2ccc(-c3ccc(-c4noc(=O)[nH]4)cc3)s2)c1=O
### Response 3.87

### Prompt Would you please give the reported log10(IC50) of CN1C(=O)COc2ccc(-c3ccc(Cn4cnn(C/C(=C/F)CN)c4=O)s3)cc21 [Example 96, hydrochloride] with recombinant human DAO (diamine oxidase) (Homo sapiens, UniProt P19801)?
### Response 2.49
